Test system: MOLT-4 leukemia
Experiment: NCI tumour cell line growth inhibition, 48 h; in the data active means GI50 below about 0.43 µM; inactive means the rest
Tick one outcome: active, inactive

Known results for compounds:
CCN1C(=O)/C(=c2\sc3n(c2=O)C2C(NN=3)N(CC)C(=O)N2CC)c2ccccc21 (stereo unspecified)
inactive
CCOC(=O)c1c(C)n([O-])c2cc(F)c(F)cc2[n+]1=O
inactive
O=S(=O)(NCCNc1nccc(-c2c(-c3ccc(F)cc3)nc3sccn23)n1)c1ccc(O)cc1
inactive
Cn1c2c(c3ccccc31)CCN1C[C@@H]3CCCC[C@H]3C[C@@H]21
inactive
CS(=O)(=O)Nc1cc(-c2ccc3ncc(C#N)c(Nc4ccc(F)c(Cl)c4)c3c2)cnc1Cl
active

Please examine the following record next.
Query: recorded result category for C=C(C(=O)c1ccccc1)C(NC(C)(C)C)c1ccccc1 (stereo unspecified) in this test
inactive

###

Test system: UACC-257 melanoma
Assay: NCI tumour cell line growth inhibition, 48 h
Reported Property: TGI

# count of solved cases: 3
CCN1C(=O)/C(=c2\sc3n(c2=O)C2C(NN=3)N(CC)C(=O)N2CC)c2ccccc21 (stereo not given)
> 100 µM
O=C(c1ccccc1)c1ccc(N2C(=O)/C(=C/c3cccc(Oc4ccccc4)c3)N=C2c2ccccc2)c(N2C(=O)/C(=C/c3cccc(Oc4ccccc4)c3)N=C2c2ccccc2)c1
71.7 µM
COc1ccc(S(=O)(=O)N/N=C(\C)CN2C(=O)c3ccccc3C2=O)cc1OC
> 100 µM

Items follow; give TGI for each.
1. COc1ccc(C2=C(c3ccccc3)C(=O)N3CCCC3C2)cc1 (stereo not given)
2. CCOC(=O)C(C(=O)OCC)=C1C=C(c2ccccc2)c2ccccc21
3. NC(=O)c1c[nH]c2ncnc(N)c12
4. CCCCCCC(=O)OC[n+]1ccc(-c2c(COC(=O)NC(C)C)c(COC(=O)NC(C)C)c3n2CCC3)cc1

1: > 100 µM; 2: > 100 µM; 3: > 100 µM; 4: > 100 µM

Items follow; give TGI for each.
1. c1cc[n+](Cc2c3ccccc3cc3c2ccc2ccccc23)cc1
2. OC1(C(Sc2ccccc2)Sc2ccccc2)CCCCCC1

5.48 µM
69.4 µM

Given CC(=O)N1C(c2[nH]c3ccccc3c2Cc2ccccc2)CCN1c1ccccc1 (stereo not given) , state its recorded TGI.
> 10 µM

###

Tested on: NCI-H23 lung
Assay: NCI tumour cell line growth inhibition, 48 h
Reported Property: TGI

# count of solved cases: 5
C/C=C\C1OC1(C)c1cc(=O)c2c(C)cc3c(c2o1)C(=O)c1c(O)c(C2CC(C)(N(C)C)C(OC(C)=O)C(C)O2)cc(C2CC(N(C)C)C(O)C(C)O2)c1C3=O (stereo not given)
0.00871 µM
COc1ccc(COCC[C@H](C)OC2OC(CO[Si](C)(C)C(C)(C)C)C(O)C(O)C2O)cc1 (stereo not given in full)
> 100 µM
O=c1[nH]c(=O)n([C@H]2C[C@@H](CO)[C@@H](O)C2)cc1I
> 100 µM
COc1ccc(OC)c(C2=C(c3cn(C)c4ccccc34)C(=O)NC2=O)c1
> 25 µM
OC1C2CCCCN2C[C@@H](O)[C@H]1O (stereo not given in full)
> 100 µM

Items follow; give TGI for each.
1. CC(=O)OCc1nnn2c1C(OC(C)=O)CC2 (stereo not given)
2. OC1(C(Sc2ccccc2)Sc2ccccc2)CCCCCC1
3. O=C1CCc2cc(Br)ccc2O1
4. Clc1nc(Cl)c2ncn(-c3ccccc3)c2n1
5. CC(C)N(C(C)C)S(=O)(=O)CC12CCC(C/C1=N\O)C2 (stereo not given)

["> 100 µM", "> 100 µM", "> 100 µM", "4.84 µM", "> 100 µM"]
